Source: the RNAGym collection of RNA variant scans (doi:10.1126/science.aae0568)

B1: tRNA (parent)
chain: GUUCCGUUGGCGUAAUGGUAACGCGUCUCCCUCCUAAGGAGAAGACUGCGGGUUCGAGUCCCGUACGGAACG

Variants of: B1
Test: yeast fitness relative to wild type (ratio to wild type); higher = fitter; tRNA-Arg(CCU), competitive growth, 37 C, YPD
Fewer inactive variants are shown than the library holds.
MEASURED QUANTITY: yeast fitness

- MUTATION: "U19A A20C A21G C30G A43G C55G"
  RECORDED VALUE: "≤ 0.5"
- MUTATION: "G10C A42G A57U"
  RECORDED VALUE: "≤ 0.5"
- MUTATION: "A21G C22A G50C"
  RECORDED VALUE: "≤ 0.5"
- MUTATION: "U13A C29U A43G U54A U59C C61A"
  RECORDED VALUE: "≤ 0.5"
- MUTATION: "C11G C61U G68A"
  RECORDED VALUE: "≤ 0.5"
- MUTATION: "C4G G17A C29U C62U"
  RECORDED VALUE: "≤ 0.5"
- MUTATION: "C5G G10A C30U A42C A70G"
  RECORDED VALUE: "≤ 0.5"
- MUTATION: "C22U G23C G52C"
  RECORDED VALUE: "≤ 0.5"
- MUTATION: "C5U C33A A36C A37C A43G A70U"
  RECORDED VALUE: "≤ 0.5"
- MUTATION: "C27G U32G A42C C66U"
  RECORDED VALUE: "≤ 0.5"
- MUTATION: "U8C C22U U32C C46G U53G G68C"
  RECORDED VALUE: "≤ 0.5"
- MUTATION: "A20U C29A C30A"
  RECORDED VALUE: "≤ 0.5"
- MUTATION: "A36C U47A G48C U54G A65C"
  RECORDED VALUE: 0.6
- MUTATION: "C5G A36U U59G A65U"
  RECORDED VALUE: "≤ 0.5"
- MUTATION: "G6A A20C A36C U47A G48C U54G A65C"
  RECORDED VALUE: "≤ 0.5"
- MUTATION: "C49G G63C A69U"
  RECORDED VALUE: 0.651
- MUTATION: "U13C A14U C61A"
  RECORDED VALUE: "≤ 0.5"
- MUTATION: "U19A C24G C29U G52C U64G"
  RECORDED VALUE: "≤ 0.5"
- MUTATION: "U19A A45G G68C"
  RECORDED VALUE: "≤ 0.5"
- MUTATION: "C22U C46G C49A C60A A70C"
  RECORDED VALUE: "≤ 0.5"
- MUTATION: "U8C C24A U35G G52A U64A"
  RECORDED VALUE: "≤ 0.5"
- MUTATION: "A20G C24G G52C"
  RECORDED VALUE: "≤ 0.5"
- MUTATION: "C27U A40G G44A C62U"
  RECORDED VALUE: "≤ 0.5"
- MUTATION: "C4G A15G G17A C34A"
  RECORDED VALUE: "≤ 0.5"
- MUTATION: "A15C C33U U47G C49U G52C A70G"
  RECORDED VALUE: 0.585
- MUTATION: "A20G C29A C49U G63A"
  RECORDED VALUE: "≤ 0.5"
- MUTATION: "G10A C22G C62U"
  RECORDED VALUE: "≤ 0.5"
- MUTATION: "G12C G23C A45U"
  RECORDED VALUE: 0.609
- MUTATION: "G6C G51A G58A"
  RECORDED VALUE: 0.652
- MUTATION: "U16A U19A C46U C61G"
  RECORDED VALUE: 0.571
- MUTATION: "U8A C34U"
  RECORDED VALUE: 0.508
- MUTATION: "G25C C29A G48A U53G"
  RECORDED VALUE: "≤ 0.5"
- MUTATION: "G6C C31G C33G U47C G51A C66U"
  RECORDED VALUE: "≤ 0.5"
- MUTATION: "G10A C27U G67C"
  RECORDED VALUE: 0.627
- MUTATION: "C11U G56A C62A"
  RECORDED VALUE: 0.567
- MUTATION: "C49G A65C"
  RECORDED VALUE: 0.733
- MUTATION: "U16C C27G G48C A65C"
  RECORDED VALUE: "≤ 0.5"
- MUTATION: "U3A C5A U8G G10A C31U U47C"
  RECORDED VALUE: 0.632
- MUTATION: "U16A U47C A70G"
  RECORDED VALUE: 0.78
- MUTATION: "U8C C24G A57G"
  RECORDED VALUE: "≤ 0.5"
- MUTATION: "A20G C34U"
  RECORDED VALUE: 0.777
- MUTATION: "G23C U32A C61U"
  RECORDED VALUE: "≤ 0.5"
- MUTATION: "C4A G6A G67U"
  RECORDED VALUE: "≤ 0.5"
- MUTATION: "A15G C29G C31G A37C C66A"
  RECORDED VALUE: "≤ 0.5"
- MUTATION: "C11U A45C G52C C61U"
  RECORDED VALUE: "≤ 0.5"
- MUTATION: "C4A U19G A36C"
  RECORDED VALUE: 0.506
- MUTATION: "C5U G9A G39A G48A A57U"
  RECORDED VALUE: "≤ 0.5"
- MUTATION: "U16C U32C"
  RECORDED VALUE: 0.918
- MUTATION: "G12A C27U A42U C62U"
  RECORDED VALUE: "≤ 0.5"
- MUTATION: "A15C A20G A65G"
  RECORDED VALUE: "≤ 0.5"
- MUTATION: "A14U A45C G56A"
  RECORDED VALUE: 0.581
- MUTATION: "C22A G63C A65C"
  RECORDED VALUE: "≤ 0.5"
- MUTATION: "C5G A14C C34G"
  RECORDED VALUE: "≤ 0.5"
- MUTATION: "C5A U13G"
  RECORDED VALUE: 0.841
- MUTATION: "C11U G58U C61A"
  RECORDED VALUE: "≤ 0.5"
- MUTATION: "U2A C29A A42G U54A C60G G68A"
  RECORDED VALUE: "≤ 0.5"
- MUTATION: "U7A C29A"
  RECORDED VALUE: 0.73
- MUTATION: "C46G U54G"
  RECORDED VALUE: 0.527
- MUTATION: "G50C C55U A69G"
  RECORDED VALUE: 0.554
- MUTATION: "C5G A14C U16A C30U G38C G41C C46G"
  RECORDED VALUE: "≤ 0.5"
- MUTATION: "G18A U47C A57U"
  RECORDED VALUE: "≤ 0.5"
- MUTATION: "C5G U16C A20G A70U"
  RECORDED VALUE: "≤ 0.5"
- MUTATION: "U8C C55G"
  RECORDED VALUE: 0.671
- MUTATION: "C11A U28G C33A A42C"
  RECORDED VALUE: "≤ 0.5"
- MUTATION: "G6A C22G A45C G52C A57U A69C"
  RECORDED VALUE: "≤ 0.5"
- MUTATION: "G18A C30G C34G"
  RECORDED VALUE: "≤ 0.5"
- MUTATION: "A14U C30A A43U C49U"
  RECORDED VALUE: 0.545
